# Species: Homo sapiens
# protocol_summary: Binding affinity to human telomeric G-quadruplex TelQ24 (5'-d(TTAGGG)4)-3') DNA at 25 degC by fluorescent intercalator displacement assay
Each item that follows carries a reported Kb.
Response body: numeric value in ×10⁶ /M, unit text excluded.

Record excerpt, results attached:
1. CNCCNc1c2c(c(NCCNC(=N)N)c3sccc13)C(=O)c1ccccc1C2=O: 4
2. CNCCNc1c2c(c(NCCNC)c3sccc13)C(=O)c1ccccc1C2=O.Cl: 11
3. Nc1c2c(c(N)c3sccc13)C(=O)c1ccccc1C2=O: 1.3
4. N=C(N)NCCNc1c2c(c(N)c3ccsc13)C(=O)c1ccccc1C2=O: 2.1

--- query ---
// field: Kb; key: Cl.N=C(N)NCCNc1c2c(c(NCCNC(=N)N)c3sccc13)C(=O)c1ccccc1C2=O ; value = 8
